Test system: APJ-eGFP fusion protein
Sequence (P35414 whole entry, the tested form may be a part): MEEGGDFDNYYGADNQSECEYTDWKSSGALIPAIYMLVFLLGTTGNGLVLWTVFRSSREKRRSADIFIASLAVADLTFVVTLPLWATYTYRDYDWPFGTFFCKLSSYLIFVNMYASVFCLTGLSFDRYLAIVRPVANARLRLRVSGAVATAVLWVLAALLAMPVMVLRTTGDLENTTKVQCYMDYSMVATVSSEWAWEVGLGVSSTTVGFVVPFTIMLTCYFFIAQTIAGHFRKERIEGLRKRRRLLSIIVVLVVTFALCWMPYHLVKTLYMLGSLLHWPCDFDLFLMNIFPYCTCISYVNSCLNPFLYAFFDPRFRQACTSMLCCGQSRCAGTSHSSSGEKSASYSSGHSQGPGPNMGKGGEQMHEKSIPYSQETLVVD
experimentNotes: Internalization assay, CHO-M1 cells expressing APJ-eGFP, high-content imaging
Assay type: cell-based
conditionSummary: lowest concentration at which maximum internalization was observed; 0.914 nM to 2000 nM
assayReadout: Internalization Score

APL-E: Fc-linker fusion of apelin analogue QRPRLSHKGPHPF (M11H) (protein) MRAWIFFLLCLAGRALADKTHTSPPSPAPEAAGGPSVFLFPPKPKDTLMISRTPEVTCVVVDVSHEDPEVKFNWYVDGVEVHNAKTKPREEQYNSTYRVVSVLTVLHQDWLNGKEYKCKVSNKALPAPIEKTISKAKGQPREPQVYTLPPSREEMTKNQVNLTCLVKGFYPSDIAVEWESNGQPENNYKTTPPVLDSDGSFFLNSTLTVDKSRWQQGNVFSCSVMHEALHNHYTQKSLSLSPGKGGGGSGGGGSGGGGSQRPRLSHKGPHPF    1 (>1000)

Sure, the documented Internalization Score for APL-K: Leader-Fc-linker fusion of apelin analogue QRPRLQHKNPMAF (S6Q, G9N, P12A) (protein) MRAWIFFLLCLAGRALADKTHTSPPSPAPEAAGGPSVFLFPPKPKDTLMISRTPEVTCVVVDVSHEDPEVKFNWYVDGVEVHNAKTKPREEQYNSTYRVVSVLTVLHQDWLNGKEYKCKVSNKALPAPIEKTISKAKGQPREPQVYTLPPSREEMTKNQVNLTCLVKGFYPSDIAVEWESNGQPENNYKTTPPVLDSDGSFFLNSTLTVDKSRWQQGNVFSCSVMHEALHNHYTQKSLSLSPGKGGGGSGGGGSGGGGSQRPRLQHKNPMAF is 0
